# subjectOfTest: T1, His-tagged soluble recombinant human IGF-IR (srhIGF-1R-his; R&D systems) (human, UniProt P08069 31-935)
# T1 construct: extracellular domain; Bought protein; also called extra-cellular domain of IGF-1R; not shown: His tag
# assayMethodText: AlphaScreen competition with biotinylated hIGF-1 on srhIGF-1R-his
attributeMeasured: IC50 (nM)
State just the number; it will be interpreted in nM.

{"columns": ["binder", "attributeMeasured", "measurement"],
 "data": [
  ["SFYSCLESLVQGPAEKSRGQWEGCRK [F293]", "IC50", 9]
]}

Query block: Look up IC50 of TFYSCLASLLTGTPQPNRGPWERCR [RP6] and report it.
Result block: 2700

Source of measurements: patent US20110039779A1
